system: Wnt5a (protein binding on small-molecule microarray); assay: Wnt5a binders on small-molecule microarray, primary screen, biophysical, 635/667 nm fluorescence (AID 1142); conditions: 635 nm fluorescence, higher = more signal;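 further: fluorescence read at 667 nm with signal to noise per printed feature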

compound	composite z-score
CCOC(=O)C1=CCC(c2ccc(C)cc2)N(S(=O)(=O)c2ccc(C)cc2)C1 (configuration not stated)	-0.273
O=C1C2C=CC(C(O)C(c3ccccc3)c3ccccc3)N(n3cnnc3)C2C(=O)N1Cc1ccccc1 (configuration not stated)	0.159
Cc1ccc(S[C@]2(C(=O)NCC(F)(F)F)CC(=O)N(C(C)C)[C@@H]2c2ccc(CO)cc2I)cc1	0.0446
COc1ccc(CCN2C(=O)[C@@]3(Cc4ccccc42)c2ccccc2C(=O)N(Cc2ccccc2C(F)(F)F)[C@H]3c2ccc(CO)cc2)cc1	0.268
COCCOC(=O)N1C(=O)[C@@]2(c3cc(C#CC4(O)CCCCCC4)ccc31)[C@H](c1ccc(O)cc1)N1[C@H](c3ccccc3)[C@H](c3ccccc3)OC(=O)[C@H]1[C@@H]2C(=O)Nc1nc2ccccc2s1	0.513
O=C1NC(=O)C2C1C=CC(C(O)Cc1ccccc1)N2Nc1ccc(Cl)cc1Cl (configuration not stated)	-0.209
O=C1c2ccccc2[C@@]2(Cc3ccccc3N(CCN3CCOCC3)C2=O)[C@H](c2ccc(CO)cc2)N1Cc1ccccc1	-0.465
